Values from ChEMBL document CHEMBL1961873

Target: Angiopoietin-1 receptor (Homo sapiens);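 also: reported value is the mean TIE2 inhibition from the GSK PKIS dataset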
Conditions: at 1 µM
endpoint: inhibition (%)
Just the number please, in %, no unit attached.

[[record]]
chemical_structure = "CCS(=O)(=O)c1ccc(OC)c(Nc2nccc(N(C)c3ccc4c(C)n[nH]c4c3)n2)c1"
result_number = 46.3

[[record]]
chemical_structure = "c1ccc(Cc2nc3ccc(Nc4ncnc5ccccc45)cc3[nH]2)cc1"
result_number = 5.58

[[record]]
chemical_structure = "NS(=O)(=O)c1ccc(Nc2cc(-c3cccc(O)c3)n[nH]2)cc1"
result_number = 3.13


// query What inhibition appears in the records for this compound with Angiopoietin-1 receptor (Homo sapiens)? NS(=O)(=O)c1ccc(NC=C2C(=O)Nc3ccc4ncsc4c32)cc1
// result 19.6

// query What inhibition appears in the records for this compound with Angiopoietin-1 receptor (Homo sapiens)? COc1cc(Nc2nccc(-c3cnn4ncccc34)n2)cc(OC)c1
// result 39.6

// query What inhibition appears in the records for this compound with Angiopoietin-1 receptor (Homo sapiens)? COc1cccc(-n2ncc3c(N/N=C/c4ccc(S(C)(=O)=O)cc4)ncnc32)c1
// result 31.4

// query What inhibition appears in the records for this compound with Angiopoietin-1 receptor (Homo sapiens)? OCc1ccc(-c2nc(-c3ccccn3)c(-c3ccc4c(c3)OCO4)[nH]2)cc1
// result 6.23

// query What inhibition appears in the records for this compound with Angiopoietin-1 receptor (Homo sapiens)? COC(=O)c1ccc2c(c1)C(=Cc1cc(Br)c(O)c(Br)c1)C(=O)N2
// result 3.01
